Origin of the recorded values: paper PMC10408569

test system: SN 12C; assay: NCI-60 anticancer screening (SRB); assay type: cell-based; conditions: Homo sapiens, SN12C; SN 12C, renal cancer; one dose 10 μM; read-out: Growth Inhibition Percentage (GI %)
Would you kindly list inhibition at 10 µM for each of these molecules?

Input line: Recall the recorded inhibition at 10 µM for CCOC(=O)C1=C(N)N(c2ccccc2)C2=C(C(=O)CC(C)(C)C2)C1c1ccccc1OC (racemic) with SN 12C and state it.
Output line: < 10%

Input line: Form: Entry = CCOC(=O)C1=C(N)N(c2ccccc2)C2=C(C(=O)CC(C)(C)C2)C1c1ccccc1Br (racemic) | System = SN 12C | inhibition at 10 µM = ____
Output line: < 10%

Input line: # get_value(readout= inhibition at 10 µM, system= SN 12C) for CCOC(=O)C1=C(N)N(c2ccc(C)cc2)C2=C(C(=O)CC(C)(C)C2)C1c1ccc([N+](=O)[O-])cc1 (racemic)
Output line: < 10%

Input line: Fill in the recorded inhibition at 10 µM for this molecule, with SN 12C as test system: CCOC(=O)C1=C(N)N(c2ccc(Cl)cc2)C2=C(C(=O)CC(C)(C)C2)C1c1ccccc1OC (racemic)
Output line: 12%

Input line: Reported inhibition at 10 µM for SN 12C, given CCOC(=O)C1=C(N)N(c2ccc(C)cc2)C2=C(C(=O)CC(C)(C)C2)C1c1ccccc1Br (racemic) ?
Output line: 15%

Input line: // lookup inhibition at 10 µM | system=SN 12C | key= CCOC(=O)C1=C(N)N(c2ccc(Cl)cc2)C2=C(C(=O)CC(C)(C)C2)C1c1ccccn1 (racemic) [12c]
Output line: < 10%

---

tested on: HT29; test: NCI-60 anticancer screening (SRB); assay type: cell-based; settings: Homo sapiens, HT-29; HT29, colon cancer; one dose 10 μM; read-out: Growth Inhibition Percentage (GI %)
Exercise: for every item that follows, state its recorded inhibition at 10 µM.

Input line: Give the measured inhibition at 10 µM of CCOC(=O)C1=C(N)N(c2ccc(C)cc2)C2=C(C(=O)CC(C)(C)C2)C1c1ccccc1OC (racemic) [6h] .
Output line: < 10%

Input line: Can you share its inhibition at 10 µM? I mean this compound: CCOC(=O)C1=C(N)N(c2ccccc2)C2=C(C(=O)CC(C)(C)C2)C1c1ccc(OC)cc1 (racemic) [8f]
Output line: < 10%

Input line: Field request: inhibition at 10 µM | item: CCOC(=O)C1=C(N)N(c2ccc(Cl)cc2)C2=C(C(=O)CC(C)(C)C2)C1c1cccnc1 (racemic) [12f]
Output line: < 10%

Input line: Field request: inhibition at 10 µM | item: CCOC(=O)C1=C(N)N(c2ccc(Cl)cc2)C2=C(C(=O)CC(C)(C)C2)C1c1ccc(Cl)cc1 (racemic) [8e]
Output line: 46%

Input line: # lookup: inhibition at 10 µM of CCOC(=O)C1=C(N)N(c2ccccc2)C2=C(C(=O)CC(C)(C)C2)C1c1ccccc1Cl (racemic) [6a]
Output line: 45%

Input line: Dear colleague, I am looking for the recorded inhibition at 10 µM of the following compound: CCOC(=O)C1=C(N)N(c2ccc(C)cc2)C2=C(C(=O)CC(C)(C)C2)C1c1ccc([N+](=O)[O-])cc1 (racemic) [8j]
Output line: < 10%

Input line: Any idea what inhibition at 10 µM was measured for CCOC(=O)C1=C(N)N(c2ccccc2)C2=C(C(=O)CC(C)(C)C2)C1c1ccc([N+](=O)[O-])cc1 (racemic) [8i] ?
Output line: < 10%

---

system: SF-268; assay: NCI-60 anticancer screening (SRB); type: cell-based; settings: Homo sapiens; SF-268, CNS cancer; one dose 10 μM; read-out: Growth Inhibition Percentage (GI %)
What inhibition at 10 µM was measured for each of the following?

Input line: Reported inhibition at 10 µM, compound CCOC(=O)C1=C(N)N(c2ccc(C)cc2)C2=C(C(=O)CC(C)(C)C2)C1c1ccc(OC)cc1 (racemic) [8g] : ____
Output line: < 10%

Input line: Please report the recorded inhibition at 10 µM for CCOC(=O)C1=C(N)N(c2ccc(C)cc2)C2=C(C(=O)CC(C)(C)C2)C1c1ccc([N+](=O)[O-])cc1 (racemic) [8j] .
Output line: < 10%

Input line: Given the entry CCOC(=O)C1=C(N)N(c2ccc(Cl)cc2)C2=C(C(=O)CC(C)(C)C2)C1c1ccc([N+](=O)[O-])cc1 (racemic) [8k] , report its measured inhibition at 10 µM.
Output line: < 10%

Input line: Reported inhibition at 10 µM, compound CCOC(=O)C1=C(N)N(c2ccc(Cl)cc2)C2=C(C(=O)CC(C)(C)C2)C1c1ccc(OC)cc1 (racemic) [8h] : ____
Output line: < 10%

Input line: Query (compound): CCOC(=O)C1=C(N)N(c2ccccc2)C2=C(C(=O)CC(C)(C)C2)C1c1ccccc1Br (racemic) [6d] ; field requested: inhibition at 10 µM
Output line: < 10%

Input line: Please look up its inhibition at 10 µM: CCOC(=O)C1=C(N)N(c2ccc(C)cc2)C2=C(C(=O)CC(C)(C)C2)C1c1ccccn1 (racemic) [12b]
Output line: 14%

Input line: Look up inhibition at 10 µM: CCOC(=O)C1=C(N)N(c2ccccc2)C2=C(C(=O)CC(C)(C)C2)C1c1ccc(F)cc1 (racemic) [8a]
Output line: < 10%

Input line: Value lookup for inhibition at 10 µM; key = CCOC(=O)C1=C(N)N(c2ccc(Cl)cc2)C2=C(C(=O)CC(C)(C)C2)C1c1ccccc1Br (racemic) [6f]
Output line: 17%

Input line: What value of inhibition at 10 µM has been reported for the following compound? CCOC(=O)C1=C(N)N(c2ccccc2)C2=C(C(=O)CC(C)(C)C2)C1c1cccc(Cl)c1Cl (racemic) [10a]
Output line: 34%

Input line: Fill blank: measured inhibition at 10 µM of the compound CCOC(=O)C1=C(N)N(c2ccccc2)C2=C(C(=O)CC(C)(C)C2)C1c1ccccn1 (racemic) [12a] is ____.
Output line: < 10%

Input line: Sample CCOC(=O)C1=C(N)N(c2ccccc2)C2=C(C(=O)CC(C)(C)C2)C1c1ccc(Cl)cc1Cl (racemic) [10c] — what was its inhibition at 10 µM?
Output line: 48%

Input line: Entry CCOC(=O)C1=C(N)N(c2ccccc2)C2=C(C(=O)CC(C)(C)C2)C1c1ccc(OC)cc1 (racemic) [8f] has what inhibition at 10 µM?
Output line: < 10%

Input line: Which inhibition at 10 µM value is on record for CCOC(=O)C1=C(N)N(c2ccc(C)cc2)C2=C(C(=O)CC(C)(C)C2)C1c1ccccc1Br (racemic) [6e] ?
Output line: < 10%

Input line: Item CCOC(=O)C1=C(N)N(c2ccc(Cl)cc2)C2=C(C(=O)CC(C)(C)C2)C1c1ccc(N2CCOCC2)cc1 (racemic) [8m] has what recorded inhibition at 10 µM?
Output line: < 10%

Input line: Given CCOC(=O)C1=C(N)N(c2ccc(Cl)cc2)C2=C(C(=O)CC(C)(C)C2)C1c1ccccc1Cl (racemic) [6c] , state its recorded inhibition at 10 µM.
Output line: 23%

Input line: Request the reported inhibition at 10 µM associated with CCOC(=O)C1=C(N)N(c2ccc(Cl)cc2)C2=C(C(=O)CC(C)(C)C2)C1c1ccccn1 (racemic) [12c]
Output line: < 10%

Input line: Give the measured inhibition at 10 µM of CCOC(=O)C1=C(N)N(c2ccc(Cl)cc2)C2=C(C(=O)CC(C)(C)C2)C1c1ccc(Cl)cc1Cl (racemic) [10d] .
Output line: 27%

Input line: Can you share its inhibition at 10 µM? I mean this compound: CCOC(=O)C1=C(N)N(c2ccc(C)cc2)C2=C(C(=O)CC(C)(C)C2)C1c1ccc(Cl)cc1 (racemic) [8d]
Output line: < 10%

Input line: inhibition at 10 µM for CCOC(=O)C1=C(N)N(c2ccc(Cl)cc2)C2=C(C(=O)CC(C)(C)C2)C1c1cccc(Cl)c1Cl (racemic) [10b] ?
Output line: 22%

Input line: Please report the recorded inhibition at 10 µM for CCOC(=O)C1=C(N)N(c2ccccc2)C2=C(C(=O)CC(C)(C)C2)C1c1ccccc1OC (racemic) [6g] .
Output line: < 10%

Input line: Which measured inhibition at 10 µM value corresponds to CCOC(=O)C1=C(N)N(c2ccc(Cl)cc2)C2=C(C(=O)CC(C)(C)C2)C1c1ccc(F)cc1 (racemic) [8b] ?
Output line: < 10%

Input line: For the compound shown here, CCOC(=O)C1=C(N)N(c2ccc(C)cc2)C2=C(C(=O)CC(C)(C)C2)C1c1ccccc1Cl (racemic) [6b] , give the reported inhibition at 10 µM.
Output line: < 10%

Input line: So what's the measured inhibition at 10 µM for this one? CCOC(=O)C1=C(N)N(c2ccc(Cl)cc2)C2=C(C(=O)CC(C)(C)C2)C1c1cccnc1 (racemic) [12f]
Output line: < 10%

Input line: Sample CCOC(=O)C1=C(N)N(c2ccc(C)cc2)C2=C(C(=O)CC(C)(C)C2)C1c1ccccc1OC (racemic) [6h] — what was its inhibition at 10 µM?
Output line: < 10%

Input line: Any idea what its inhibition at 10 µM is? The compound is CCOC(=O)C1=C(N)N(c2ccccc2)C2=C(C(=O)CC(C)(C)C2)C1c1ccc(N2CCOCC2)cc1 (racemic) [8l]
Output line: < 10%

Input line: I am curious: what inhibition at 10 µM value has been reported for CCOC(=O)C1=C(N)N(c2ccccc2)C2=C(C(=O)CC(C)(C)C2)C1c1cccnc1 (racemic) [12d] ?
Output line: < 10%

Input line: Look at this compound and give its reported inhibition at 10 µM. CCOC(=O)C1=C(N)N(c2ccccc2)C2=C(C(=O)CC(C)(C)C2)C1c1ccc(Cl)cc1 (racemic) [8c]
Output line: 42%

Input line: Would you kindly share the measured inhibition at 10 µM for CCOC(=O)C1=C(N)N(c2ccccc2)C2=C(C(=O)CC(C)(C)C2)C1c1ccc([N+](=O)[O-])cc1 (racemic) [8i] ?
Output line: < 10%
